Can you tell me growth inhibition for the items I'm about to list?
# procedure.details: NCI Yeast Anticancer Drug Screen. Data for the sgs1 mgt1 strain (AID 161);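 also: 0% = growth of cultures given vehicle only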
# study.conditions: S. cerevisiae sgs1 mgt1 strain, at 50.0 µM, stronger effect = higher value
The panel holds about 79,000 compounds, 15% with a hit somewhere; the sample as a whole holds those more often.
Give bare numbers, in %.

{"compound": "O=C(O)C1CCCCN1O (configuration not stated)", "growth inhibition, %": -15.9}

Field: growth inhibition. Fill in for each record below.
1. CC(=O)N1C(=O)C(C)(C2=CC(=O)c3ccccc3C2=O)c2ccc(Br)cc21 (configuration not stated)
2. Cc1ccc2[nH]c(C)c(C(=O)c3cccnc3)c2c1
3. Cc1ccc2c(c1)C(=O)c1ccccc1C2=O

Output line:
1: 73.7; 2: 13.2; 3: 1.9

---

# procedure.details: NCI Yeast Anticancer Drug Screen. Data for the rad50 strain (AID 155);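 also: 0% = growth of vehicle-only cultures of the same strain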
# study.conditions: S. cerevisiae rad50 strain growth inhibition; at 50.0 µM; stronger effect = higher value
This is part of a sample that, as a whole, favours compounds with a hit. Of some 79,000 tested, about 15% had one in any assay.
Outcome: Y for growth inhibition of at least 10%; N for anything lower.

{"compound": "NC(=O)COC(=O)c1c(Cl)nc2sccn12", "group.label": "N"}

Input line: Record CC(C)NC(=O)c1ccc(CON)cc1 ; criterion: growth inhibition no lower than 10%. Met?
Output line: N

---

# procedure.details: NCI Yeast Anticancer Drug Screen. Data for the mlh1 rad18 strain (AID 175)
# study.conditions: S. cerevisiae mlh1 rad18 strain growth inhibition; at 50.0 µM; stronger effect = higher value
The panel holds about 79,000 compounds, 15% with a hit somewhere; the sample as a whole holds those more often.
readout.name: growth inhibition (%)
One number for each entry, in %.

{"compound": "c1ccc(-c2ccc(C(=C(c3ccc(-c4ccccc4)cc3)c3ccc(-c4ccccc4)cc3)c3ccc(-c4ccccc4)cc3)cc2)cc1", "growth inhibition (%)": -12.6}

Field: growth inhibition. Fill in for each record below.
1. CC1(CC2(C)SCCCS2)SCCCS1
2. O=C(O)c1ccc(-c2c3ccc(=O)cc-3oc3cc(O)ccc23)cc1
3. C=C(C(=O)NC1CCCCC1)c1ccccc1
4. CC(C)CCNc1ncnc2[nH]ncc12

Output line:
1. 7.8
2. 20.4
3. 0
4. -18.4

---

# procedure.details: NCI Yeast Anticancer Drug Screen. Data for the mlh1 rad18 strain (AID 175)
# study.conditions: S. cerevisiae mlh1 rad18 strain growth inhibition; at 50.0 µM; stronger effect = higher value
The panel holds about 79,000 compounds, 15% with a hit somewhere; the sample as a whole holds those more often. Activity calls are given as the source filed them. No stated cut-off is given here; in the data, active means growth inhibition above about 70%; inactive means the rest.
Can you tell me growth inhibition for the items I'm about to list?

{"compound": "Nc1nc(-c2cccc([N+](=O)[O-])c2)c(N=Nc2ccc(Br)cc2)s1", "growth inhibition": "5.95% (inactive)"}
{"compound": "CC(Cc1nc2ccccc2[nH]1)Cc1nc2ccccc2[nH]1", "growth inhibition": "15.6% (inactive)"}
{"compound": "O=C(CCl)Oc1cccc2cccnc12", "growth inhibition": "-2.75% (inactive)"}
{"compound": "CCCCSc1nc2c([nH]1)c(=O)n(C)c(=O)n2C", "growth inhibition": "1.5% (inactive)"}
{"compound": "CCCCn1cnc2c(N)ncnc21", "growth inhibition": "-15.5% (inactive)"}

Field: growth inhibition. Fill in for each record below.
1. CCCC(=O)OCCCCC1CCCO1 (configuration not stated)
2. O=[N+]([O-])c1ccc(Sc2c3ccccc3nc3ccccc23)cn1

Output line:
1: 11.6% (inactive); 2: -18.4% (inactive)
